Experiment: NCI Yeast Anticancer Drug Screen. Data for the mlh1 rad18 strain (AID 175)
Details: S. cerevisiae mlh1 rad18 strain growth inhibition; at 50.0 µM (retest, dose inferred, filed as 5.0); stronger effect = higher value
Compounds without any hit were thinned out: in the full panel of roughly 79,000, 15% have a hit.
Mark Not fulfilled for growth inhibition values under 80%, and Fulfilled for everything at or above.

// below: answered compounds
O=C(O)Cc1ccc2c3c(cccc13)CC2: Fulfilled
CN(C)N=Nc1ccc(-c2ccccc2)cc1: Fulfilled
CC(=O)Nc1ccc(/C=C2/NC(=S)N(/C=C3\C(=O)Oc4ccccc4C3=O)C2=O)cc1: Not fulfilled
CC/C(=C(\CC)c1ccc(OCCN2CCOCC2)cc1)c1ccc(OCCN2CCOCC2)cc1: Not fulfilled

Lab note: next compound to report on.
Please check the record `CSC(=Nc1ccccc1)/N=C(\SCc1ccccc1)N(C)C` and state if its growth inhibition is at or above 80%.
Fulfilled

Cited source: PubChem BioAssay (NCI)
